System: UMB1949 (TSC2-deficient);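 note: renal angiomyolipoma cell lines screened in 384-well plates, viability normalized per plate to DMSO-treated cells, each plate carrying 50 nM rapamycin and 1 µM staurosporine controls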
Experiment: relative viability vs DMSO (fraction); higher = less cytotoxic
Conditions: 0.0128 nM; serum: 0.1% FBS; 72 h
Where a name gives a salt, the structure may show the parent alone.
reported metric: relative viability
Just the number, please, no unit attached.

These recorded examples may help you get a feel for the data.
>>> experimental_result("COCC[n+]1c2c(n(Cc3cnccn3)c1C)C(=O)c1ccccc1C2=O")
0.913
>>> experimental_result("CC[C@@]1(O)C(=O)OCc2c1cc1n(c2=O)Cc2cc3c(CN(C)C)c(O)ccc3nc2-1 [Topotecan Hydrochloride]")
1.08
>>> experimental_result("CCS(=O)(=O)c1cccc(-c2cc(C(=O)NC3CCN(C)CC3)c(C)c3[nH]c4ncc(C)cc4c23)c1")
0.561
>>> experimental_result("Cc1ccc(NC(=O)c2ccc(CN3CCN(C)CC3)cc2)cc1Nc1nc(-c2cccnc2)cs1")
1.09

GET /values?readout=relative viability&item= CCCCc1nc2cc(/C=C/C(=O)NO)ccc2n1CCN(CC)CC
1.04

Request the reported relative viability associated with CC(C)c1cc(C(C)C)c(CC(=O)NS(=O)(=O)Oc2c(C(C)C)cccc2C(C)C)c(C(C)C)c1
1.13
